molecular target: SUD2core (SUD2-N+M of Nsp3) (SARS-CoV-2, UniProt P0DTC1 1230-1493); test: BLI; 100 mM K+; conditions: protein: recombinant; tags: His; label: 5'-biotin (BLI, pulldown); Cy5 (EMSA); G4, folded in 100 mM K+
RECORDED_METRIC: Kd (nM)
Provide the reading as a plain figure in nM.

// returns reported Kd for input GGGCGCGGGAGGAATTGGGCGGG (structured_DNA) [Bcl2G4WT (G4 folded)]
85

# credit: paper PMC10127692
